Consider the following molecules and their measured DC50 readings.
# tested-system: BRAF V600E (Homo sapiens, UniProt P15056, V600E)
# Construct: endogenous C-terminal HiBiT fusion tag on BRAF V600E allele; endogenous in cells; host or cells: A375 clone 1F10 (CRISPR-Cas9 knock-in of the HiBiT tag; parental A375 from ATCC)
# Sequence (P15056 whole entry V600E, the tested form may be a part): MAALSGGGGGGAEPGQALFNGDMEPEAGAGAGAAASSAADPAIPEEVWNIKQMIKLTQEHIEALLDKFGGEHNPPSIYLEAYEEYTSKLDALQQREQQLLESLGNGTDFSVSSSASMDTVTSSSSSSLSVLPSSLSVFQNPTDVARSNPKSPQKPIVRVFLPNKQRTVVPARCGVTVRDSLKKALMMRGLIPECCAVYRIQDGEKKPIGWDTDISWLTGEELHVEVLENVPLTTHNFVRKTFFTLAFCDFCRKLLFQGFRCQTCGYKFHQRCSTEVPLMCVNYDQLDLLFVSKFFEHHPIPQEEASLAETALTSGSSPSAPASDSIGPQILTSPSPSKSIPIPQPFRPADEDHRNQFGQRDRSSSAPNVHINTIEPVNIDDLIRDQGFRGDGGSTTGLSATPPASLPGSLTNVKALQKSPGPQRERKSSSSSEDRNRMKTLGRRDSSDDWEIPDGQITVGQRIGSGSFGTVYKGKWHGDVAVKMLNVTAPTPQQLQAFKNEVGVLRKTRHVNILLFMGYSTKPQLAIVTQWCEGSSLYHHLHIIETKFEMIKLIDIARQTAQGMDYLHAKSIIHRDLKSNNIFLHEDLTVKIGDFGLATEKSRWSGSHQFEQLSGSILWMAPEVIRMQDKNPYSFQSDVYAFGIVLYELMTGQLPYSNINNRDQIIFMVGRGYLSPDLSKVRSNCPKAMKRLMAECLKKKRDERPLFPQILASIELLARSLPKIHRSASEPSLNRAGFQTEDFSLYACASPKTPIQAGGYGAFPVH
# assay-explanation: BRAF HiBiT degradation assay, C-terminal HiBiT-tagged BRAF V600E A375 cells (clone 1F10), Nano-Glo HiBiT Lytic assay
# Type: cell-based
# assay-context: A375 (BRAF V600E); DC50 at 50%: fitted conc. at Y=50

molecule="CCCS(=O)(=O)Nc1cccc(-c2nc(C(C)(C)C)sc2-c2ccnc(Nc3ccc(N4CCN(C(=O)[C@H]5CC[C@H](Oc6ccc(C7CCC(=O)NC7=O)cn6)CC5)CC4)c(F)c3)n2)c1F (mixture of isomers) [Compound 50]" tested_system="BRAF V600E (Homo sapiens, UniProt P15056, V600E)" observed_measurement="10 to 50 nM"
molecule="CCN(C)S(=O)(=O)Nc1cccc(-c2nc(C)sc2-c2ccnc(Nc3ccc(N4CCN(CC5CCN(c6ccc([C@H]7CCC(=O)NC7=O)cn6)CC5)CC4)cn3)n2)c1F [Compound 27]" tested_system="BRAF V600E (Homo sapiens, UniProt P15056, V600E)" observed_measurement="< 10 nM"
molecule="CCCS(=O)(=O)Nc1cccc(-c2nc(C(C)(C)C)sc2-c2ccnc(Nc3cnn(CC4CCN(C(=O)[C@@H]5CCN(c6ccc(C7CCC(=O)NC7=O)cn6)C5)CC4)c3)n2)c1F (mixture of isomers) [Compound 114]" tested_system="BRAF V600E (Homo sapiens, UniProt P15056, V600E)" observed_measurement="10 to 50 nM"

// field: DC50; key: CCCS(=O)(=O)Nc1cccc(-c2nc(C(C)(C)C)sc2-c2ccnc(Nc3ccc(C4CCN(CC5CCN(c6ccc([C@@H]7CCC(=O)NC7=O)cc6)CC5)CC4)cc3)n2)c1F [Compound 90] ; value = 10 to 50 nM

// field: DC50; key: CCCS(=O)(=O)Nc1cccc(-c2nc(C(C)(C)C)sc2-c2ccnc(N[C@H]3CC[C@H](N4CCN(C(=O)C5CCN(c6ccc(C7CCC(=O)NC7=O)cn6)CC5)CC4)CC3)n2)c1F (mixture of isomers) [Compound 137] ; value = 50 to 500 nM

// field: DC50; key: CCCS(=O)(=O)Nc1cccc(-c2nc(C(C)(C)C)sc2-c2ccnc(N[C@H]3CC[C@@H](N4CCN(CC5CCN(c6ccc(C7CCC(=O)NC7=O)cn6)CC5)CC4)CC3)n2)c1F (mixture of isomers) [Compound 134] ; value = 10 to 50 nM

// field: DC50; key: CCCS(=O)(=O)Nc1cccc(-c2nc(C(C)(C)C)sc2-c2ccnc(Nc3cccc(OC4CCN(C(=O)[C@H]5CC[C@H](Oc6ccc(C7CCC(=O)NC7=O)cc6)CC5)CC4)c3)n2)c1F (mixture of isomers) [Compound 98] ; value = 10 to 50 nM

// field: DC50; key: CCCS(=O)(=O)Nc1cccc(-c2nc(C(C)(C)C)sc2-c2ccnc(Nc3ccc4c(c3)CCN(C(=O)[C@@H]3CCN(c5ccc(C6CCC(=O)NC6=O)cn5)C3)C4)n2)c1F (mixture of isomers) [Compound 121] ; value = 50 to 500 nM

// field: DC50; key: CCCS(=O)(=O)Nc1cccc(-c2nc(C(C)(C)C)sc2-c2ccnc(Nc3cnn(CC4CCN(C[C@H]5CC[C@H](Oc6ccc(C7CCC(=O)NC7=O)cc6)CC5)CC4)c3)n2)c1F (mixture of isomers) [Compound 84] ; value = 50 to 500 nM
